# assaySystem: S100B (Homo sapiens)
# Construct: made in house; host or cells: Escherichia coli BL21(DE3)
# Sequence (P04271 whole entry): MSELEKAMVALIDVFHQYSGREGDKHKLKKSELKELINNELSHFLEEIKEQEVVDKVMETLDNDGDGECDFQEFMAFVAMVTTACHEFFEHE
# runDescription: Competition pull-down with native ligand RSK1 (689–735)
# Format: binding
# settings: H14 library; competitor peptide 200 µM; read-out: Surface mapping KD (apparent), competition
We begin with a simple list: items and their reported Kd.
Could you give the number and then its unit, please?

- structureSmiles: "CC(C)C[C@@H](CC(=O)N[C@H]1CCCC[C@@H]1C(N)=O)NC(=O)[C@H]1CCCC[C@@H]1NC(=O)[C@H]1CCCC[C@@H]1NC(=O)C[C@H](Cc1c[nH]c2ccccc12)NC(=O)[C@H]1CCCC[C@@H]1N"
  measure: "Kd"
  testResult: "123 µM"

Reported Kd for CC(C)C[C@@H](CC(=O)N[C@H]1CCCC[C@@H]1C(N)=O)NC(=O)[C@H]1CCCC[C@@H]1NC(=O)[C@H]1CCCC[C@@H]1NC(=O)C[C@H](Cc1ccc(O)cc1)NC(=O)[C@H]1CCCC[C@@H]1N : what is it?
201 µM

###

# assaySystem: Gal-1 (Homo sapiens, UniProt P09382)
# Construct: made in house; host or cells: E. coli BL21(DE3)
# Sequence (P09382 whole entry): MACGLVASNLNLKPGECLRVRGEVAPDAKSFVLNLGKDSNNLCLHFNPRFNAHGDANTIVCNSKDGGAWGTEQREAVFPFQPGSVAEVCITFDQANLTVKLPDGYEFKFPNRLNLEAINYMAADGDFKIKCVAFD
# runDescription: Competition pull-down with lactose
# Type: binding
# settings: H14 library; lactose 10 mM; read-out: Surface mapping KD (apparent), competition
measure: pKd
Here pKd is given on a logarithmic scale as minus log10 of the concentration in mol/L.

- structureSmiles: "CSCC[C@@H](CC(=O)N[C@H]1CCCC[C@@H]1C(N)=O)NC(=O)[C@H]1CCCC[C@@H]1NC(=O)[C@H]1CCCC[C@@H]1NC(=O)C[C@H](C)NC(=O)[C@H]1CCCC[C@@H]1N"
  pKd: 3.31

Name the recorded pKd for NC(=O)[C@H]1CCCC[C@@H]1NC(=O)C[C@H](Cc1ccccc1)NC(=O)[C@H]1CCCC[C@@H]1NC(=O)[C@H]1CCCC[C@@H]1NC(=O)C[C@H](CCC(=O)O)NC(=O)[C@H]1CCCC[C@@H]1N .
3.37

Sample NC(=O)CC[C@@H](CC(=O)N[C@H]1CCCC[C@@H]1C(N)=O)NC(=O)[C@H]1CCCC[C@@H]1NC(=O)[C@H]1CCCC[C@@H]1NC(=O)C[C@H](Cc1ccc(O)cc1)NC(=O)[C@H]1CCCC[C@@H]1N — what was its pKd?
3.36

###

# assaySystem: S100B (Homo sapiens)
# Construct: made in house; host or cells: Escherichia coli BL21(DE3)
# runDescription: Pull-down assay with immobilized protein and LSM libraries
# Assay type: binding
# settings: H12 library; 1:1 binding assumed; read-out: Surface mapping KD (apparent)
Collected pKd values appear next to each entry.
In simple prose, pKd is minus the logarithm base ten of a concentration in moles per litre.

- structureSmiles: "C[C@@H](O)[C@@H](CC(=O)N[C@H]1CCC[C@@H]1C(=O)N[C@H]1CCC[C@@H]1C(=O)N[C@H](CC(=O)N[C@H]1CCC[C@@H]1C(=O)N[C@H]1CCC[C@@H]1C(N)=O)Cc1ccccc1)NC(=O)[C@H]1CCC[C@@H]1NC(=O)[C@H]1CCC[C@@H]1N"
  measure: "pKd"
  testResult: 3.73
- structureSmiles: "CC(C)C[C@@H](CC(=O)N[C@H]1CCC[C@@H]1C(=O)N[C@H]1CCC[C@@H]1C(=O)N[C@@H](C)CC(=O)N[C@H]1CCC[C@@H]1C(=O)N[C@H]1CCC[C@@H]1C(N)=O)NC(=O)[C@H]1CCC[C@@H]1NC(=O)[C@H]1CCC[C@@H]1N"
  measure: "pKd"
  testResult: 3.53
- structureSmiles: "CSCC[C@@H](CC(=O)N[C@H]1CCC[C@@H]1C(=O)N[C@H]1CCC[C@@H]1C(N)=O)NC(=O)[C@H]1CCC[C@@H]1NC(=O)[C@H]1CCC[C@@H]1NC(=O)C[C@H](Cc1ccc(O)cc1)NC(=O)[C@H]1CCC[C@@H]1NC(=O)[C@H]1CCC[C@@H]1N"
  measure: "pKd"
  testResult: 3.99
- structureSmiles: "C[C@@H](CC(=O)N[C@H]1CCC[C@@H]1C(=O)N[C@H]1CCC[C@@H]1C(=O)N[C@H](CC(=O)N[C@H]1CCC[C@@H]1C(=O)N[C@H]1CCC[C@@H]1C(N)=O)Cc1ccccc1)NC(=O)[C@H]1CCC[C@@H]1NC(=O)[C@H]1CCC[C@@H]1N"
  measure: "pKd"
  testResult: 3.94
- structureSmiles: "NCCCC[C@@H](CC(=O)N[C@H]1CCC[C@@H]1C(=O)N[C@H]1CCC[C@@H]1C(N)=O)NC(=O)[C@H]1CCC[C@@H]1NC(=O)[C@H]1CCC[C@@H]1NC(=O)C[C@H](Cc1c[nH]c2ccccc12)NC(=O)[C@H]1CCC[C@@H]1NC(=O)[C@H]1CCC[C@@H]1N"
  measure: "pKd"
  testResult: 4.59

For the molecule shown here, N=C(N)NCCC[C@@H](CC(=O)N[C@H]1CCC[C@@H]1C(=O)N[C@H]1CCC[C@@H]1C(=O)N[C@H](CC(=O)N[C@H]1CCC[C@@H]1C(=O)N[C@H]1CCC[C@@H]1C(N)=O)Cc1c[nH]c2ccccc12)NC(=O)[C@H]1CCC[C@@H]1NC(=O)[C@H]1CCC[C@@H]1N , give the reported pKd.
4.60

Endpoint output: pKd of NC(=O)[C@H]1CCC[C@@H]1NC(=O)[C@H]1CCC[C@@H]1NC(=O)C[C@H](Cc1ccccc1)NC(=O)[C@H]1CCC[C@@H]1NC(=O)[C@H]1CCC[C@@H]1NC(=O)C[C@H](CO)NC(=O)[C@H]1CCC[C@@H]1NC(=O)[C@H]1CCC[C@@H]1N . Value?
3.72

So what's the measured pKd for this one? CSCC[C@@H](CC(=O)N[C@H]1CCC[C@@H]1C(=O)N[C@H]1CCC[C@@H]1C(=O)N[C@H](CC(=O)N[C@H]1CCC[C@@H]1C(=O)N[C@H]1CCC[C@@H]1C(N)=O)[C@@H](C)O)NC(=O)[C@H]1CCC[C@@H]1NC(=O)[C@H]1CCC[C@@H]1N
3.79
